target: Peroxisome proliferator-activated receptor alpha (Homo sapiens) (UniProt Q07869); assay: Agonist activity at human PPAR alpha in a HepG2 cells by PPAR-GAL4 transactivation assay relative to GW-2331; type: functional, cell-based
Sequence (Q07869 whole entry, the tested form may be a part): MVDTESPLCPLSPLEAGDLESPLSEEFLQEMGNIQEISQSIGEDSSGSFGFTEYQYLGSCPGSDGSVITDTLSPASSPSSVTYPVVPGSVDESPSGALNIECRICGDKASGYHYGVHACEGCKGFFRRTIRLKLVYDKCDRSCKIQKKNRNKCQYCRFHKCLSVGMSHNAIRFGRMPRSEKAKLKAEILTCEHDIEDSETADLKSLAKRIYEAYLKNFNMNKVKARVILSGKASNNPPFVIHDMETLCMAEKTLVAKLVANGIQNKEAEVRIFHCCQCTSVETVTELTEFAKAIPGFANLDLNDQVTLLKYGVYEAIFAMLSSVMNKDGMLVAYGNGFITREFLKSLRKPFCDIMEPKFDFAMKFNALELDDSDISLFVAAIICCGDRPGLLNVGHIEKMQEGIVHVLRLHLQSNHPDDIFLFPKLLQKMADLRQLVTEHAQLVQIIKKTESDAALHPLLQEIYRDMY
RESULT_TYPE: %max (%)

Field: example entries. Status: answers known.
# COMPOUND, UNIT_LABEL, %max
records = [
    ("Cc1oc(-c2ccccc2)nc1CCOc1ccc(CC(C)C(=O)O)cn1 (stereo unspecified)", "%", 93),
    ("Cc1cccc(-c2nc(CCOc3ccc(CC4(C(=O)O)CCCO4)cn3)c(C)o2)c1 (stereo unspecified)", "%", 86),
    ("COC(C)(Cc1ccc(OCCc2nc(-c3ccccc3)oc2C)nc1)C(=O)O (stereo unspecified)", "%", 106),
    ("CCCC(Cc1ccc(OCCc2nc(-c3ccccc3)oc2C)nc1)C(=O)O (stereo unspecified)", "%", 92),
]

a = COc1ccc(-c2nc(CCOc3ccc(CC4(C(=O)O)CCCO4)cn3)c(C)o2)cc1 (stereo unspecified)
b = CN(CCOc1ccc(CC2SC(=O)NC2=O)cc1)c1ccccn1 (stereo unspecified)
Given the listed items, does a or b have the lesser reported %max? Reply briefly: the label of your chosen item.
b
(b: 6%, a: 96%)

* * *

assay: Oral bioavailability in Sprague-Dawley rat; type: ADME, organism-based; conditions: in vivo
RESULT_TYPE: bioavailability (%)

a = Cc1oc(-c2ccccc2)nc1CCOc1ccc(C[C@]2(C(=O)O)CCCO2)cn1
b = CO[C@@](C)(Cc1ccc(OCCc2nc(-c3ccccc3)oc2C)nc1)C(=O)O
Given the listed items, does a or b have the lesser reported bioavailability? Reply briefly: the label of your chosen item.
a

* * *

target: Peroxisome proliferator-activated receptor gamma (Homo sapiens, UniProt P37231); assay: Displacement of radiolabeled darglitazone from human PPAR gamma by SPA binding assay
Sequence (P37231 whole entry): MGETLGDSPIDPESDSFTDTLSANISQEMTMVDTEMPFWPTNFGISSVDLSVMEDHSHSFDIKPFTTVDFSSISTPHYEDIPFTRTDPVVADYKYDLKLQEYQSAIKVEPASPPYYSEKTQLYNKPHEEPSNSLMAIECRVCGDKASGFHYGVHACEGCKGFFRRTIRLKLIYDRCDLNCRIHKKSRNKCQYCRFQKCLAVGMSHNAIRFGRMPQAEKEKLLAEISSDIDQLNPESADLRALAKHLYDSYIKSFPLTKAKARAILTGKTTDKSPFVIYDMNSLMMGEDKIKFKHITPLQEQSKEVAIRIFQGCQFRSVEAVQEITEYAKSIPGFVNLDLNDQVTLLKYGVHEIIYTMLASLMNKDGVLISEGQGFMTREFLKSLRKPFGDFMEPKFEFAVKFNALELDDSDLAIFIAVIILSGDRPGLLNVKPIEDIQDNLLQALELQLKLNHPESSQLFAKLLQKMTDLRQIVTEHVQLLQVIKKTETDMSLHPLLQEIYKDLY
pKi: −log10 of the molar value.
RESULT_TYPE: pKi

A = COC(Cc1ccc(OCCc2ccc(Oc3cccc(Cl)c3)cc2C)nc1)C(=O)O (stereo not drawn)
B = Cc1oc(-c2ccccc2)nc1CCOc1ccc(CC2(C(=O)O)CCOC2)cn1 (stereo not drawn)
C = Cc1oc(-c2ccc(C#N)cc2)nc1CCOc1ccc(CC2(C(=O)O)CCCO2)cn1 (stereo not drawn)
Please list these in order of increasing pKi. Thank you! Give your ranking as a list of the labels in the requested order.
B, C, A
(B: 4.77, C: 6.48, A: 7.82)

A = Cc1oc(-c2ccccc2)nc1CCOc1ccc(CC(CC(C)C)C(=O)O)cn1 (stereo not drawn)
B = CCOC(CC)(Cc1ccc(OCCc2nc(-c3ccccc3)oc2C)nc1)C(=O)O (stereo not drawn)
Given the listed items, does A or B have the lesser reported pKi? Reply briefly: the label of your chosen item.
B

* * *

assay: Clearance in iv dosed Sprague-Dawley rat; type: ADME, organism-based; details: in vivo
RESULT_TYPE: clearance (mL/min/kg)

# CHEM_SMILES, clearance / mL/min/kg
data = [
    ("Cc1oc(-c2ccccc2)nc1CCOc1ccc(C[C@]2(C(=O)O)CCCO2)cn1", 2.5),
    ("CO[C@@](C)(Cc1ccc(OCCc2nc(-c3ccccc3)oc2C)nc1)C(=O)O", 2.2),
]

* * *

target: Peroxisome proliferator-activated receptor alpha (Homo sapiens, UniProt Q07869); assay: Displacement of radiolabeled GW-2331 from human PPAR alpha by SPA binding assay
Sequence (Q07869 whole entry): as the sequence (Q07869 whole entry, the tested form may be a part) above
RESULT_TYPE: Ki (nM)

Field: example entries. Status: answers known.
# COMPOUND, Ki / nM
data = [
    ("CCOC(Cc1ccc(OCCc2nc(-c3ccccc3)oc2C)nc1)C(=O)O (stereo not drawn)", 43),
    ("Cc1oc(-c2ccccc2)nc1CCOc1ccc(CC(C(=O)O)C(C)(C)C)cn1 (stereo not drawn)", 9400),
    ("CCC(Cc1ccc(OCCc2nc(-c3ccccc3)oc2C)nc1)C(=O)O (stereo not drawn)", 1300),
    ("COC(C)(Cc1ccc(OCCc2nc(-c3ccccc3)oc2C)nc1)C(=O)O (stereo not drawn)", 330),
    ("Cc1oc(-c2ccccc2)nc1CCOc1ccc(CC2(C(=O)O)CCCCO2)cn1 (stereo not drawn)", 78),
]

I = Cc1oc(-c2cccc(Cl)c2)nc1CCOc1ccc(CC2(C(=O)O)CCCO2)cn1 (stereo not drawn)
II = COc1ccc(-c2nc(CCOc3ccc(CC4(C(=O)O)CCCO4)cn3)c(C)o2)cc1 (stereo not drawn)
Given the listed items, does I or II have the lesser reported Ki? Reply briefly: the label of your chosen item.
II
(II: 65 nM, I: 99 nM)

I = CCCC(Cc1ccc(OCCc2nc(-c3ccccc3)oc2C)nc1)C(=O)O (stereo not drawn)
II = CCOC(CC)(Cc1ccc(OCCc2nc(-c3ccccc3)oc2C)nc1)C(=O)O (stereo not drawn)
III = Cc1oc(-c2ccccc2)nc1CCOc1ccc(CC(C(=O)O)C(C)C)cn1 (stereo not drawn)
IV = Cc1ccc(-c2nc(CCOc3ccc(CC4(C(=O)O)CCCO4)cn3)c(C)o2)cc1 (stereo not drawn)
Hey, can you sort those compounds up there by Ki, smallest first? Give your ranking as a list of the labels in the requested order.
IV, I, III, II

I = CO[C@@](C)(Cc1ccc(OCCc2nc(-c3ccccc3)oc2C)nc1)C(=O)O
II = Cc1oc(-c2ccccc2)nc1CCOc1ccc(CC2(C(=O)O)CCCO2)cn1 (stereo not drawn)
Given the listed items, does I or II have the lesser reported Ki? Reply briefly: the label of your chosen item.
II
(II: 78 nM, I: 570 nM)

P = COC(Cc1ccc(OCCc2ccc(Oc3cccc(Cl)c3)cc2C)nc1)C(=O)O (stereo not drawn)
Q = Cc1oc(-c2ccccc2)nc1CCOc1ccc(CC(C)(C)C(=O)O)cn1
R = Cc1oc(-c2cccc(C(F)(F)F)c2)nc1CCOc1ccc(CC2(C(=O)O)CCCO2)cn1 (stereo not drawn)
S = Cc1oc(-c2ccc(C(F)(F)F)cc2)nc1CCOc1ccc(CC2(C(=O)O)CCCO2)cn1 (stereo not drawn)
Arrange these compounds by their Ki, starting with the largest number. Give your ranking as a list of the labels in the requested order.
Q, R, S, P
(Q: 6800 nM, R: 100 nM, S: 21 nM, P: 13 nM)

The values you see were collected from ChEMBL document CHEMBL1139738.
